- system-tested: T1, HMGN1 (Homo sapiens, UniProt P05114 1-100)
- T1 sequence: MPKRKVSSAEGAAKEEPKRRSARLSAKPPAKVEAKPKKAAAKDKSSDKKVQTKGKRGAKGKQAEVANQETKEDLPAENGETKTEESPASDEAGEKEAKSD
- test-method-notes: MST; MST, 50 nM labelled protein, 0.61 nM-20 uM oligo, 140 mM potassium phosphate pH 7.2 (6.7 for i-motif N1-3; CTCF oligo CD at pH 6.7), 10 mM NaCl in oligo stocks, 22 C
- condition-info: protein: commercial; tags: His; parallel G4, partly intermolecular
endpoint: Kd (nM)
Only the number, expressed in nM, is required.

query: Which Kd is listed for GGGGAGGGGGAGGGGGGAGGGAGGGGAGG (structured_DNA) [N1C-3 (N1-C3)] ?
result: 200
